# measured_target: T1, human IL-23 (human, UniProt P29460 23-328; Q9NPF7 20-189)
# T1 construct: Recombinant (Ebioscience); HIS-tagged in flow cytometry, biotinylated in some assays; also called hIL-23; rhIL-23
# T1 sequence 1: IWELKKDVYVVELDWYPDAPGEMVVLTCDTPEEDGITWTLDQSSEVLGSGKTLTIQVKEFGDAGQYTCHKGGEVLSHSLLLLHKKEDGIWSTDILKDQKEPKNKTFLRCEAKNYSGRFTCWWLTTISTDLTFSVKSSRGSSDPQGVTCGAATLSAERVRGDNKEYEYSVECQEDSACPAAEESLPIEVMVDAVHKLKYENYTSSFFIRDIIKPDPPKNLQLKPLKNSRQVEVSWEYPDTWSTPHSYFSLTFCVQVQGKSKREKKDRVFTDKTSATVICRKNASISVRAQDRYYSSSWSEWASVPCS
# T1 sequence 2: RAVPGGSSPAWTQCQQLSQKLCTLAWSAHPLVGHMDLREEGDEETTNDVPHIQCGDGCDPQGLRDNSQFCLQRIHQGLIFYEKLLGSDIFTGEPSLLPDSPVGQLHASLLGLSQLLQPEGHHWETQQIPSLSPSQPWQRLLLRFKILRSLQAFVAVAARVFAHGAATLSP
# protocol_summary: ELISA, coated IL-23
assay_endpoint: binding result

binder="Antibody 74 (antibody, human IgG1, kappa, V domains shown) VH: EVQLVQSGAEVKKPGATVKISCKASGYTFSDYYLHWVRQAPGKGLEWMGWIDPENGDTEYAPKFQGKVTITADTSTDTGYLELSSLRSEDTAVYYCAANKELRYFDVWGQGTLVTVSS VL: DIQMTQSPSSVSASVGDRVTITCRASQSISINLHWYQQKPGKAPKLLIKFASQSISGVPSRFSGYGSGTDFSLTINSLQPEDFARYYCQQSNSFPLTFGGGTKVEIKR" value_reported=binds
binder="Antibody 67 (antibody, human IgG1, kappa, V domains shown) VH: EVQLVQSGAEVKKPGATVKISCKASGYTFSDYYLHWVRQRPGKGLEWMGWIDPENGDTEYAPKFQGRVTITADTSTDTGYLELSSLRSEDTAVYYCAANKELRYFDVWGQGTLVTVSS VL: DIQMTQSPSSVSASVGDRVTITCRASQSISINLHWYQQKPGKAPKLLIYFASQSISGVPSRFSGSGSGTDFSLTINSLQPEDFARYYCQQSNSFPLTFGGGTKVEIKR" value_reported=binds
